- experimental-system: CLR/RAMP1 receptor (UniProt Q16602 23-461; O60894 27-148, limits assumed)
- Sequence (Q16602 23-461 limits assumed, chain 1 of 2): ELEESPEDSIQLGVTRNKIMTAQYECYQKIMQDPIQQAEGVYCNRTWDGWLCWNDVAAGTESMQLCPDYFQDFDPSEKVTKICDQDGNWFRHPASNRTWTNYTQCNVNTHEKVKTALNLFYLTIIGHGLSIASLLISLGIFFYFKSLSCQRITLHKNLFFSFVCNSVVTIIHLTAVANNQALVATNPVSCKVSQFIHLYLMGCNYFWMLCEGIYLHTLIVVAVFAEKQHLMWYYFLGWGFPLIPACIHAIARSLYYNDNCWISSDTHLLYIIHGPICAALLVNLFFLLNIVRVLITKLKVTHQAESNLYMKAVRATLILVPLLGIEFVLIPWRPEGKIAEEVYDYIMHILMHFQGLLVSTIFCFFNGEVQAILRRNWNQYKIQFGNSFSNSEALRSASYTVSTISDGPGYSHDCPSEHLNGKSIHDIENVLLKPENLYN
- Sequence (O60894 27-148 limits assumed, chain 2 of 2): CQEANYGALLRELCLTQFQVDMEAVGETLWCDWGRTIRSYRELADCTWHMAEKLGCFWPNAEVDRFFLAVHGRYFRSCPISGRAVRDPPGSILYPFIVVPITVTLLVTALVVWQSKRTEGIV
- protocol-details: cell-based or functional assay
* marks the point of attachment. Palmitoyl = CCCCCCCCCCCCCCCC(=O)*; miniPEG = mini-PEG spacer unit
Reported CLR/RAMP1 Max Activity (antagonist) values follow for various binders
property: CLR/RAMP1 Max Activity (antagonist)

binder	value-measured
YGGFLRRIRPKLKKVQKLSAPVDPSSPHSY (Ace- at N-terminus; miniPEG between YGGFLRRIRPKLK and K(Pal); K(Pal); -NH2) [SEQ ID NO: 146]	102 % of positive control
Pal-KVQKLAHQSAPVDPSSPHSY-NH2 [SEQ ID NO: 124]	95 % of positive control
YAGFLKVQKLSAPVDPSSPHSY (Ace- at N-terminus; (D-Ala) and (D-Leu) in Y(D-Ala)GF(D-Leu); miniPEG before K(Pal); K(Pal); -NH2) [SEQ ID NO: 145]	99 % of positive control
miniPEG-K(Palmitoyl)VQKLAHQIYQFTDKDKDNSAPVDPSSPHSY-NH2 [SEQ ID NO: 78]	104 % of positive control
Palmitoyl-KVQNLSAPVDPSSPHSY-NH2 [SEQ ID NO: 141]	43 % of positive control
Palmitoyl-KVQKLNFVPTNVGSKAF-NH2 [SEQ ID NO: 142]	100 % of positive control
